# method summary: Cytotoxicity assay (MTT)
# Assay type: cell-based
# protocol conditions: human; 50% cytotoxic concentration, 72 hours, MTT; read-out: CC50
Property: CC50 at 72 h; scope: individual compounds
measurement kind: CC50 at 72 h (mM)

[[record]]
compound = "CCOP(=O)(Cn1cc(CN2C(=O)C(O)(C#CC3CC3)c3ccccc32)nn1)OCC (centres unmarked)"
bound_type = ">"
value = 0.1

[[record]]
compound = "CCOP(=O)(Cn1cc(CN2C(=O)C(O)(C#CC3CC3)c3cc(C)ccc32)nn1)OCC (centres unmarked)"
bound_type = ">"
value = 0.1

[[record]]
compound = "CCOP(=O)(Cn1cc(CN2C(=O)C(=O)c3cc(C)ccc32)nn1)OCC"
bound_type = "="
value = 2.06

[[record]]
compound = "CCOP(=O)(Cn1cc(CN2C(=O)C(=O)c3ccccc32)nn1)OCC"
bound_type = "="
value = 2.32

[[record]]
compound = "CCOP(=O)(Cn1cc(CN2C(=O)C(=O)c3cc(Cl)ccc32)nn1)OCC"
bound_type = ">"
value = 0.1

